Origin of values: patent US20250027068A1

# test target: pooled human IgG (human IgG1, 2, 3 and 4) (human); note: test concentration or dose not given here
# assay name: cell-based or functional assay
experimental readout: Enzyme Activity Endpoint Assay: Fab′2
Reply with the number and its unit after it.

Given the binder PRT-395 (enzyme) MVTSVWTKGVTPPADFTQGEDVFHAPYVANQGWYDITKTFNGKDDLLCGAATAGNMLHWWFDQNKEYIEAYLKKHPEKQKIMFGDQELLDVRKAINTKGSQKNSELFNYFRDKAFPTLSARRLGVMPDLVLDMFINGYYLNVTKTQTTDVNRTYQEKDKRGGIFDAVFTRGDQSKLLTSRHDFKEKGLKEISDLIKQELTEGKALGLSHTYANVRINHVINLWGADFDSDGNLKAIYVTDSDSNASIGMKKYFVGVNSAGKVAISAKEIKEDNIGAQVLGLFTLSTGQDIWNQTN , write its reported Enzyme Activity Endpoint Assay: Fab′2. 544 ng/µL
